Test: Quantitative High-Throughput drug screen in 47 multiple myeloma cell lines against the NCATS MIPE library collection: PCM6_Riken cell viability assay (AID 1919870); further: nearly all actives have a fitted effect of over 30% in size
Conditions: CellTiter-Glo ATP, 48 h; series mostly up to 45.8 µM
Inconclusive results are not listed. The source made the active and inactive calls. The call rests on the fitted dose curve; in most records, active means well fitted cell-killing curve with a large enough effect; inconclusive means small, poorly fitted or top-dose-only effect, or effect the other way; inactive means no such curve, though single readings can be large or run the other way.
Bench note: report the call from active, inactive

compound | class-label
CON=C(C(=O)N[C@@H]1C(=O)N2C(C(=O)O)=C(Cn3ccc(=N)n3CCO)CS[C@H]12)c1csc(N)n1 | inactive
CCCCCCCCCCCC(CC1OC(=O)C1CCCCCC)OC(=O)C(CC(C)C)NC=O (stereo not drawn) | active
C[C@H](CCC(=O)O)[C@H]1CCC2C3C[C@H](O)[C@@H]4C[C@H](O)CC[C@]4(C)C3CC[C@@]21C (stereo partly drawn) | inactive
COC1=C2C[C@@H](C)C[C@H](OC)[C@@H](O)[C@@H](C)C=C(C)[C@H](OC(N)=O)[C@@H](OC)C=CC=C(C)C(=O)NC(=CC1=O)C2=O | active
CNC(=O)Nc1ccc(-c2nc(N3CC4CCC(C3)O4)c3cnn(C4CCC5(CC4)OCCO5)c3n2)cc1 | active

Hi team, can someone confirm the assay call for CC1(C)[C@H](O[C@H]2O[C@H](C(=O)O)[C@@H](O)[C@H](O)[C@H]2O[C@@H]2O[C@H](C(=O)O)[C@@H](O)[C@H](O)[C@H]2O)CC[C@@]2(C)[C@H]1CC[C@]1(C)[C@H]2C(=O)C=C2[C@H]3C[C@@](C)(C(=O)O)CC[C@]3(C)CC[C@]21C ?
inactive

Hi team, can someone confirm the assay call for CCOC(=O)[C@@H](N)Cc1ccc(-c2cc(O[C@H](c3ccc(Cl)cc3-n3ccc(C)n3)C(F)(F)F)nc(N)n2)cc1 ?
active

Hi team, can someone confirm the assay call for C[C@H](NC(=O)Cc1cc(F)cc(F)c1)C(=O)N[C@H](C(=O)OC(C)(C)C)c1ccccc1 ?
inactive

----------
Assay: Quantitative High-Throughput drug screen in 47 multiple myeloma cell lines against the NCATS MIPE library collection: KMS11_JCRBsus cell viability assay (AID 1919873); further: nearly all actives have a fitted effect of over 50% in size
Details: KMS11 myeloma viability, CellTiter-Glo ATP luminescence, 48 h; series mostly up to 45.8 µM
Results filed as inconclusive are left out. Activity calls are given as the source filed them. Calls come from the whole dose curve; as a rule, active = well fitted cell-killing curve with a large enough effect; inconclusive = small, poorly fitted or top-dose-only effect, or effect the other way; inactive = no such curve, though single readings can be large or run the other way.
Bench note: report the call from active, inactive

Hi team, can someone confirm the assay call for CCCCCCCCc1ccc(CCC(N)(CO)CO)cc1 ?
active

Hi team, can someone confirm the assay call for COc1cc(C)c(C=CC(C)=CC=CC(C)=CC(=O)O)c(C)c1C ?
inactive

Hi team, can someone confirm the assay call for COC[C@H](NC(=O)c1cnc(C)s1)C(=O)N[C@@H](COC)C(=O)N[C@@H](Cc1ccccc1)C(=O)[C@@]1(C)CO1 ?
active

Hi team, can someone confirm the assay call for CCC[C@H]1C[C@H](C(=O)N[C@@H]([C@@H]2O[C@@H](SC)[C@@H](O)[C@@H](O)[C@@H]2O)[C@H](C)Cl)N(C)C1 ?
inactive

----------
Test: qHTS of pediatric cancer cell lines to identify multiple opportunities for drug repurposing: Primary screen for DAOY cells (AID 1347090); further: nearly all actives have a fitted effect of over 55% in size; further: potency means the concentration at half of the fitted maximal effect
Conditions: DAOY medulloblastoma viability, CellTiter-Glo luminescence, 48 h; series mostly up to 46 µM
Inconclusive results are not listed. The source made the active and inactive calls. The call rests on the fitted dose curve; in most records, active means well fitted cell-killing curve with a large enough effect; inconclusive means small, poorly fitted or top-dose-only effect; inactive means flat fitted curve, though single readings scatter.
reported-endpoint: Potency

Solved entries (count: 4):
compound | Potency
CC(C)(O)[C@H]1CC[C@@](C)([C@H]2[C@@H](O)C[C@@]3(C)[C@@H]4C[C@H](O[C@@H]5O[C@H](CO)[C@@H](O)[C@H](O)[C@@H]5O)[C@H]5C(C)(C)[C@@H](O[C@@H]6OC[C@@H](O)[C@H](O)[C@@H]6O)CC[C@@]56C[C@@]46CC[C@]23C)O1 | inactive
O=C(Nc1cc2cc[nH]c2cn1)c1ccccc1 | 14.8 µM (active)
N[C@H]1CN(c2c(F)cc3c(=O)c(C(=O)O)cn(C4C[C@@H]4F)c3c2Cl)CC12CC2 (some centres undefined) | inactive
O=C(Nc1ccc(Oc2ccnc3[nH]ccc23)c(F)c1)c1cccn(-c2ccc(F)cc2)c1=O | inactive

Lab book: Potency of Cc1ccc2nc(NCCN)c3ncc(C)n3c2c1 noted as 14.8 µM (active)

Lab book: Potency of CCCCCCCN(CC)CCCC(O)c1ccc(NS(C)(=O)=O)cc1 (centres undefined) noted as inactive

Lab book: Potency of N#CNC(=NCCCCCCOc1ccc(Cl)cc1)Nc1ccncc1 noted as 14.8 µM (active)

Lab book: Potency of O=C(C=CC=Cc1ccc2c(c1)OCO2)N1CCCCC1 noted as inactive

Lab book: Potency of O=c1ccn([C@@H]2O[C@H](CO)[C@H](O)[C@@H]2F)c(=O)[nH]1 noted as inactive

----------
Experiment: qHTS profiling of the MIPE4 collection as inhibitors of Plasmodium falciparum (DD2) proliferation (Rep 2) (AID 743346)
Conditions: P. falciparum Dd2 in erythrocytes, SYBR Green DNA, 72 h; at 28.5 µM (top of the series) unless noted
Starred links: 1 amine or outer side, 2 acyl side, 3 side chain; linkers in the order of their positions; H or OH if unused. Positions of bridges follow the written chain, without caps; N, C: chain ends. Non-standard residues stand in square brackets, D forms with d. Residues, ends and D or L forms follow the SMILES beside them. Chains are numbered I, II in the order given. Actinocin(9to1) = Cc1c2oc3c(C)ccc(C(=O)[*:1])c3nc-2c(C(=O)[*:2])c(N)c1=O; NMeV = CN[CH](C(=O)O)C(C)C; Sar = CNCC(=O)O
reported-endpoint: parasite growth, % of control (lower = inhibition)
Hi, when you answer, please include the unit after the number. Thanks!

Solved entries (count: 4):
compound | test-result
CCN(CC)Cc1ccc2cc(COC(=O)Nc3ccc(C(=O)NO)cc3)ccc2c1 | 6.48%
O=C(NCc1ccccc1)[C@H](Cc1ccccc1)NC(=O)[C@@H]1O[C@@H]1C(=O)NCCc1ccc(O)cc1 | 16.7%
O=C(CCCCCCC(=O)Nc1cccnc1)NO | 7.99%
NC[C@H]1O[C@H](O[C@H]2[C@@H](O)[C@@H](O[C@H]3O[C@H](CO)[C@@H](O)[C@H](N)[C@@H]3O)[C@H](N)C[C@@H]2N)[C@H](N)C[C@H]1O | 78%

Lab book: parasite growth, % of control (lower = inhibition) of CC(C=CC=C(C)C=CC1=C(C)CCCC1(C)C)=CC=CC=C(C)C=CC=C(C)C=CC1=C(C)CCCC1(C)C noted as 28.1%

Lab book: parasite growth, % of control (lower = inhibition) of Cc1c2oc3c(C)ccc(C(=O)NC4C(=O)NC(C(C)C)C(=O)N5CCCC5C(=O)N(C)CC(=O)N(C)C(C(C)C)C(=O)OC4C)c3nc-2c(C(=O)NC2C(=O)NC(C(C)C)C(=O)N3CCCC3C(=O)N(C)CC(=O)N(C)C(C(C)C)C(=O)OC2C)c(N)c1=O (stereo unspecified) (I: TVP[Sar][NMeV] / II: TVP[Sar][NMeV]; ester I:1-I:C, II:1-II:C; linker I:N-II:N via Actinocin(9to1); configuration not given here) noted as 15.2%

----------
Assay: qHTS profiling for inhibitors of Plasmodium falciparum (DD2) proliferation (AID 743323)
Conditions: lower = more inhibition; at 28.7 µM (top of the series)
Starred links: 1 amine or outer side, 2 acyl side, 3 side chain; linkers in the order of their positions; H or OH if unused. Positions of bridges follow the written chain, without caps; N, C: chain ends. Non-standard residues stand in square brackets, D forms with d. Residues, ends and D or L forms follow the SMILES beside them. Chains are numbered I, II in the order given. Actinocin(9to1) = Cc1c2oc3c(C)ccc(C(=O)[*:1])c3nc-2c(C(=O)[*:2])c(N)c1=O; NMeV = CN[CH](C(=O)O)C(C)C; Sar = CNCC(=O)O
activity, percent of control for assorted compounds
Provide only the numeric value, understood in %.

compound | activity, percent of control, %
Nc1ncn([C@@H]2O[C@H](CO)[C@@H](O)[C@@H]2O)c(=O)n1 | 90.8

Now for another entry.
Lab book: activity, percent of control of Cc1c2oc3c(C)ccc(C(=O)NC4C(=O)NC(C(C)C)C(=O)N5CCCC5C(=O)N(C)CC(=O)N(C)C(C(C)C)C(=O)OC4C)c3nc-2c(C(=O)NC2C(=O)NC(C(C)C)C(=O)N3CCCC3C(=O)N(C)CC(=O)N(C)C(C(C)C)C(=O)OC2C)c(N)c1=O (configuration not stated) (I: TVP[Sar][NMeV] / II: TVP[Sar][NMeV]; ester I:1-I:C, II:1-II:C; linker I:N-II:N via Actinocin(9to1); configuration not given here) noted as -2.06

----------
Test system: Hek293T
Test: Primary qHTS to identify gynecologic anti-cancer compounds using libraries of approved drugs and bioactive compounds (AID 1345084); further: nearly all actives have a fitted effect of over 55% in size; further: potency means the concentration at half of the fitted maximal effect
Conditions: Gynecologic cancer cell panel viability, ATPlite luminescence, 48 h, control line for the selectivity index; series mostly up to 57.5 µM
Records with an inconclusive call do not appear. Active and inactive are the calls of the source. Calls come from the whole dose curve; as a rule, active = well fitted cell-killing curve with a large enough effect; inconclusive = small, poorly fitted or top-dose-only effect, or effect the other way; inactive = flat fitted curve, though single readings scatter.
reported-endpoint: Potency

compound | Potency
Cc1cncc2cccc(S(=O)(=O)N3CCCN(C(=O)CN)C[C@@H]3C)c12 | inactive
CC1(C)O[C@@H]2C[C@H]3[C@@H]4CCC5=CC(=O)C=C[C@]5(C)[C@@H]4[C@@H](O)C[C@]3(C)[C@]2(C(=O)CO)O1 | inactive
FC(F)(F)c1ccc(Nc2nc3ccc(Oc4ccnc(-c5ncc(C(F)(F)F)[nH]5)c4)cc3[nH]2)cc1 | inactive
CCC[C@H]1C[C@H](C(=O)N[C@@H]([C@@H]2O[C@@H](SC)[C@@H](O)[C@@H](O)[C@@H]2O)[C@H](C)Cl)N(C)C1 | inactive
Nc1ccn(C2CO[C@H](CO)O2)c(=O)n1 (some centres undefined) | inactive
CC(O)(C#Cc1ccc2c(c1)N(c1nc(N)ncc1Cl)CC2)c1nccs1 (centres undefined) | inactive

Lab book: Potency of O=C(Nc1cc2cc[nH]c2cn1)c1ccccc1 noted as 2.24 µM (active)

Lab book: Potency of O=C(Nc1ccc(Oc2ccnc3[nH]ccc23)c(F)c1)c1cccn(-c2ccc(F)cc2)c1=O noted as inactive

Lab book: Potency of Cc1ncc(-c2ccnc(Nc3ccc(S(C)(=O)=O)cc3)n2)n1C(C)C noted as 5.01 µM (active)
